Please go through the items and note down their TGI.
Tested on: UACC-257
procedureDetails: Growth inhibition of human UACC257 cells after 48 hrs by SRB protein assay
Format: functional
conditionSummary: UACC-257, 48 h, read-out: Log TGI (converted)
Answer with a number only, understood to be in µM.

Dear colleague, please send me the reported TGI for COc1ccc(NC(=O)CC2Sc3ncnn3C2=O)cc1 (configuration not stated) when you can.
36.3

Hello, please tell me recorded TGI for this one: O=C(CC1Sc2ncnn2C1=O)Nc1ccc(Br)cc1 (configuration not stated)
33.1

For the compound `O=c1/c(=C/c2ccc(Cl)cc2)sc2ncnn12` , report TGI.
30.2

###

System: A549
procedureDetails: Growth inhibition of human A549/ATCC cells after 48 hrs by SRB protein assay
Assay type: functional
conditionSummary: A549, 48 h
property: GI50 (µM)
Lab book: enter the figure in µM, no units written.

Return the recorded GI50 value; entry: O=C(CC1Sc2ncnn2C1=O)Nc1ccc(Br)cc1 (configuration not stated)
35.5

Dear colleague, please send me the reported GI50 for COc1ccc(NC(=O)CC2Sc3ncnn3C2=O)cc1 (configuration not stated) when you can.
61.7

Provide only the value of recorded GI50 for `O=c1/c(=C/c2ccc(Cl)cc2)sc2ncnn12`
21.4

Specify measured GI50 for `O=c1/c(=C/c2ccc(F)cc2)sc2ncnn12` .
87.1

###

Test system: MDA-MB-435
procedureDetails: Growth inhibition of human MDA-MB-435 cells after 48 hrs by SRB protein assay
Assay type: functional
conditionSummary: MDA-MB-435, 48 h, read-out: Log TGI (converted)
property: TGI

Output TGI of O=C(CC1Sc2ncnn2C1=O)Nc1ccc(Cl)cc1 (configuration not stated)
> 100 µM

Please give measured TGI of the following entry: `O=c1/c(=C/c2ccc(Cl)cc2)sc2ncnn12`
26.9 µM

Respond only with TGI recorded for O=C(CC1Sc2ncnn2C1=O)Nc1ccccc1 (configuration not stated)
> 100 µM

// fetch TGI given entry COc1ccc(NC(=O)CC2Sc3ncnn3C2=O)cc1 (configuration not stated)
70.8 µM

Look up and state reported TGI for O=C(CC1Sc2ncnn2C1=O)Nc1ccc(Br)cc1 (configuration not stated)
> 100 µM

Identify measured TGI associated with `O=c1/c(=C/c2ccc(F)cc2)sc2ncnn12`
> 100 µM

Input CCOC(=O)c1ccc(NC(=O)CC2Sc3ncnn3C2=O)cc1 (configuration not stated) , output reported TGI.
> 100 µM

###

Tested on: A498
procedureDetails: Growth inhibition of human A498 cells after 48 hrs by SRB protein assay
Assay type: functional
conditionSummary: A498, 48 h
property: GI50 (µM)
Give just the numeric value; µM need not be written.

Give the observed GI50 of COc1ccc(NC(=O)CC2Sc3ncnn3C2=O)cc1 (stereo not given) for A498.
21.4

Param request: GI50 | system A498 | item `O=c1/c(=C/c2ccc(Cl)cc2)sc2ncnn12`
19.1

Enter measured GI50, system A498, for the compound shown: O=C(CC1Sc2ncnn2C1=O)Nc1ccc(Br)cc1 (stereo not given)
12.3

System A498. Read-out GI50. Item `O=c1/c(=C/c2ccc(F)cc2)sc2ncnn12` . Report value.
61.7

###

System: PC-3
procedureDetails: Growth inhibition of human PC3 cells after 48 hrs by SRB protein assay
Assay type: functional
conditionSummary: PC-3, 48 h, read-out: Log TGI (converted)
property: TGI (µM)
Numeric answer only, unit µM assumed.

Please look at this molecule and report its TGI: `O=c1/c(=C/c2ccc(Cl)cc2)sc2ncnn12`
28.8

Indicate the recorded TGI value for this molecule: COc1ccc(NC(=O)CC2Sc3ncnn3C2=O)cc1 (configuration not stated)
56.2

Report TGI, nothing else, for this molecule: O=C(CC1Sc2ncnn2C1=O)Nc1ccc(Br)cc1 (configuration not stated)
95.5

Answer with the recorded TGI for the molecule listed here: CCOC(=O)c1ccc(NC(=O)CC2Sc3ncnn3C2=O)cc1 (configuration not stated)
40.7
